Value source: ChEMBL document CHEMBL5252653

procedure-details: Cardiotoxicity in Sprague-Dawley rat assessed as decrease in blood pressure at 20 to 80 microg/ml, iv administered as bolus dose by ECG analysis
Assay type: toxicity, organism-based
Design: scale not given: the % may be the effect or the level left
experimental-parameters: in vivo, at 20 to 80 µg/mL, dose 20-80 µg/ml
observed-property: Activity (%)
Write down the numeric answer in % and omit the unit.

The following molecules have reported results that may help.
CCCC(=O)OCn1cnc([C@@H](C)c2cccc(C)c2C)c1.Cl : 20.07
Cc1cccc([C@H](C)c2cncn2COP(=O)([O-])[O-])c1C.[Na+].[Na+] : 15.15
COC(=O)OCn1cnc([C@@H](C)c2cccc(C)c2C)c1.Cl : 16.35

I have this molecule here, COC(=O)n1cnc([C@@H](C)c2cccc(C)c2C)c1.Cl , and I need its recorded Activity. 17.35

What do we get for Cc1cccc([C@H](C)c2cn(COC(=O)OC3CC3)cn2)c1C.Cl ? 37.25

What do we get for Cc1cccc([C@H](C)c2cn(COC(=O)OC3CCC3)cn2)c1C.Cl ? 34.79

What do we get for CCCOC(=O)n1cnc([C@@H](C)c2cccc(C)c2C)c1 ? 28.23

What do we get for CC(=O)OC(C)n1cnc([C@@H](C)c2cccc(C)c2C)c1.Cl (stereo partly drawn) ? 14.67

What do we get for Cc1cccc([C@H](C)c2cnc[nH]2)c1C ? 43.55

What do we get for Cc1cccc([C@H](C)c2cn(C(=O)OCC(C)C)cn2)c1C.Cl ? 34.65

What do we get for Cc1cccc([C@H](C)c2cn(COC(=O)C(C)(C)C)cn2)c1C.Cl ? 14.57

What do we get for CCC(=O)OCn1cnc([C@@H](C)c2cccc(C)c2C)c1.Cl ? 34.92

What do we get for Cc1cccc([C@H](C)c2cn(C(=O)OC(C)C)cn2)c1C.Cl ? 22.4

====

procedure-details: Cardiotoxicity in Sprague-Dawley rat assessed as change in heart rate at 20 to 80 microg/ml, iv administered as bolus dose by ECG analysis
Format: toxicity, organism-based
experimental-parameters: in vivo, at 20 to 80 µg/mL, dose 20-80 µg/ml
observed-property: Activity (%)
Write down the numeric answer in % and omit the unit.

I have this compound here, CCCC(=O)OCn1cnc([C@@H](C)c2cccc(C)c2C)c1.Cl , and I need its recorded Activity. -29.92

What do we get for Cc1cccc([C@H](C)c2cn(COC(=O)C(C)(C)C)cn2)c1C.Cl ? -27.08

What do we get for Cc1cccc([C@H](C)c2cnc[nH]2)c1C ? -33.58

What do we get for Cc1cccc([C@H](C)c2cn(C(=O)OC(C)C)cn2)c1C.Cl ? -22.88

====

Each entry below carries its recorded Time.
System: Rattus norvegicus
procedure-details: Sedative activity in Sprague-Dawley rat assessed as duration time at 2 times of EC50 administered as bolus dose
Assay type: functional
Write down the numeric answer in s and omit the unit.

The following molecules have reported results that may help.
Cc1cccc([C@H](C)c2cn(C(=O)OC(C)C)cn2)c1C.Cl : 3984.1
CCC(=O)OCn1cnc([C@@H](C)c2cccc(C)c2C)c1.Cl : 2325.8
CCOC(=O)CCC(=O)OCn1cnc([C@@H](C)c2cccc(C)c2C)c1.Cl : 2484.1

Could you now consider this next molecule?
I have this molecule here, CCC(=O)OC(C)n1cnc([C@@H](C)c2cccc(C)c2C)c1.Cl (some centres not stated) , and I need its recorded Time. 2295.6
